TEST SUMMARY: RP, Waters ACQUITY UPLC BEH C18, 100 × 2.1 mm, 1.7 µm, 35 °C, 0.35 mL/min, estimated dead time 0.63 min; A: water + 0.01% formic acid + 5 mM ammonium formate, pH 3.71; B: acetonitrile + 0.01% formic acid, pH 3.71; gradient (min/%B) 0/5 0.5/5 16/95 16.1/99 19/99 19.1/5 21/5
CONDITIONS: stereoisomer not certain
Categorized via LC retention time: low band = under 4 min, middle band = from 4 min up to 6 min, high band = 6 min and over

Solved entries (count: 3):
CCNC(C)Cc1cccc(C(F)(F)F)c1 (stereo not given) [Fenfluramine]    high band
NCCc1cnc[nH]1 [Histamine]    low band
CNC(=O)ON=C(C)C(C)SC (stereo not given) [Butocarboxim]    middle band

Consider the record given below.
Prompt line: The entry to classify is CCC(C)C1OC2(C=CC1C)CC1CC(CC=C(C)C(OC3CC(OC)C(OC4CC(OC)C(O)C(C)O4)C(C)O3)C(C)C=CC=C3COC4C(O)C(C)=CC(C(=O)O1)C34O)O2 (stereo not given) [Avermectin] ; which class holds it?
Response line: high band

----------
Reported LC retention time by item:
TEST SUMMARY: RP, Thermo Scientific Acclaim RSLC 120 C18, 100 × 2.1 mm, 2.2 µm, 30 °C, 0.2 mL/min, estimated dead time 1.1 min; A: 90% water + 10% methanol + 0.01% formic acid + 5 mM ammonium formate, pH 3.61; B: methanol + 0.01% formic acid + 5 mM ammonium formate, pH 3.61; gradient (min/%B) 0/1 1/1 2/39 13/99.9 15/99.9 15.1/1 20.1/1
CONDITIONS: stereoisomer not certain
Field format: number, assumed min, no unit text.

O=c1c2cc(F)ccc2nc(-n2cncn2)n1-c1ccc(Cl)cc1Cl [Fluquinconazole]    10.1
CCCCCCCCn1sc(Cl)c(Cl)c1=O [4-5-Dichloro-2-n-octyl-isothiazol-3(2H)-on (DCOIT)]    12.5
O=C1CN=C(c2ccccc2F)c2cc(Cl)ccc2N1 [Flurazepam-Desalkyl]    8.74
COC(=O)C(c1ccccc1)C1CCCCN1 (centres undefined) [Methylphenidate]    4.96

Prompt line: May I ask what LC retention time has been recorded for Clc1ccc2c(c1)N=C(N1CCNCC1)c1ccccc1N2 [Clozapine-Nor] ?
Response line: 7.29

Prompt line: May I ask what LC retention time has been recorded for CCOP(=S)(OCC)SCSCC [Phorate] ?
Response line: 11.4

Prompt line: May I ask what LC retention time has been recorded for c1cc2c(cc1CN1CCNCC1)OCO2 [Piperazine -1-Piperonyl] ?
Response line: 4.22

Prompt line: May I ask what LC retention time has been recorded for CNC(=O)Oc1cc(C)cc(C)c1 [XMC (Group of peaks!)] ?
Response line: 7.78

Prompt line: May I ask what LC retention time has been recorded for Cc1cnc(NC(=O)C2=C(O)c3ccccc3S(=O)(=O)N2C)s1 [Meloxicam] ?
Response line: 7.09

Prompt line: May I ask what LC retention time has been recorded for CN1COCN(Cc2cnc(Cl)s2)C1=N[N+](=O)[O-] [Thiamethoxam] ?
Response line: 4.25

Prompt line: May I ask what LC retention time has been recorded for CCC(=O)C(CC(C)N(C)C)(c1ccccc1)c1ccccc1 (centres undefined) [Methadone] ?
Response line: 8.04

Prompt line: May I ask what LC retention time has been recorded for CC1(C)C(C(=O)OC(C#N)c2cccc(Oc3ccccc3)c2)C1C(Br)C(Br)(Br)Br (centres undefined) [Tralomethrin] ?
Response line: 13.6

Prompt line: May I ask what LC retention time has been recorded for O=[N+]([O-])c1ccc(Oc2ccc(Cl)cc2Cl)cc1 [Nitrofen] ?
Response line: 12.1

Prompt line: May I ask what LC retention time has been recorded for O=C(O)Cc1c[nH]c2ccccc12 [Indole-3-acetic acid] ?
Response line: 5.78

Prompt line: May I ask what LC retention time has been recorded for CNC(=O)Oc1ccccc1C1OCCO1 [Dioxacarb] ?
Response line: 5.16

Prompt line: May I ask what LC retention time has been recorded for CCCCCc1cc(O)c2c(c1)OC(C)(C)C1CCC(C)=CC21 (centres undefined) [THC] ?
Response line: 14

----------
TEST SUMMARY: RP, Thermo Scientific Acclaim RSLC 120 C18, 100 × 2.1 mm, 2.2 µm, 30 °C, 0.2 mL/min, estimated dead time 1.1 min; A: 90% water + 10% methanol + 0.01% formic acid + 5 mM ammonium formate, pH 3.61; B: methanol + 0.01% formic acid + 5 mM ammonium formate, pH 3.61; gradient (min/%B) 0/1 1/1 2/39 13/99.9 15/99.9 15.1/1 20.1/1
CONDITIONS: stereoisomer not certain
One threshold, 8 min, splits the recorded LC retention time values: lower ones are MET, equal or higher ones are NOT MET.

Solved entries (count: 10):
COC(=O)C(NC(=O)c1cn(CCCCCF)c2ccccc12)C(C)C (centres undefined) [MMB-2201]    NOT MET
CC(C)(C)NCC(O)COc1cccc2c1CC(O)C(O)C2 (centres undefined) [Nadolol]    MET
O=C(O)c1nc(Cl)ccc1Cl [Clopyralid]    MET
O=C(NC(=O)c1c(F)cccc1F)Nc1ccc(Oc2ccc(C(F)(F)F)cc2Cl)cc1F [Flufenoxuron]    NOT MET
CC(=NNC(=O)Nc1cc(F)cc(F)c1)c1ncccc1C(=O)O [Diflufenzopyr]    MET
CCOP(=S)(OCC)SC1OCCOC1SP(=S)(OCC)OCC (centres undefined) [Dioxathion]    NOT MET
COCC(=O)Nc1c(I)c(C(=O)NCC(O)CO)c(I)c(C(=O)N(C)CC(O)CO)c1I (centres undefined) [Iopromid]    MET
Cc1ncc([N+](=O)[O-])n1C [Dimetridazole]    MET
O=c1c(-c2ccc(O)cc2)coc2cc(O)ccc12 [Daidzein]    MET
N#CC(CCc1ccc(Cl)cc1)(Cn1cncn1)c1ccccc1 (centres undefined) [Fenbuconazole]    NOT MET

Prompt line: I wonder whether CCCCCCCCCCCC(=O)NCCC[N+](C)(C)CC(=O)O [Lauramidopropylbetaine] has LC retention time below 8 min. Can you tell?
Response line: NOT MET

Prompt line: I wonder whether CNC(=O)Oc1cc(C)cc(C(C)C)c1 [Promecarb] has LC retention time below 8 min. Can you tell?
Response line: NOT MET

Prompt line: I wonder whether CCCc1cc(C(N)=S)ccn1 [Protionamide] has LC retention time below 8 min. Can you tell?
Response line: MET

Prompt line: I wonder whether O=C1CN=C(c2ccccn2)c2cc(Br)ccc2N1 [Bromazepam] has LC retention time below 8 min. Can you tell?
Response line: MET

Prompt line: I wonder whether CCOP(=S)(OCC)ON=C(C#N)c1ccccc1 [Phoxim] has LC retention time below 8 min. Can you tell?
Response line: NOT MET

Prompt line: I wonder whether CC12CCC(=O)C=C1CCC1C2CCC2(C)C(OC(=O)c3ccccc3)CCC12 (centres undefined) [Testosterone benzoate] has LC retention time below 8 min. Can you tell?
Response line: NOT MET

Prompt line: I wonder whether O=S1(=O)OCC2C(CO1)C1(Cl)C(Cl)=C(Cl)C2(Cl)C1(Cl)Cl (centres undefined) [Endosulfan-sulfate] has LC retention time below 8 min. Can you tell?
Response line: NOT MET

----------
Reported LC retention time by item:
TEST SUMMARY: RP, Thermo Scientific Acclaim RSLC 120 C18, 100 × 2.1 mm, 2.2 µm, 30 °C, 0.2 mL/min, estimated dead time 1.1 min; A: 90% water + 10% methanol + 0.01% formic acid + 5 mM ammonium formate, pH 3.61; B: methanol + 0.01% formic acid + 5 mM ammonium formate, pH 3.61; gradient (min/%B) 0/1 1/1 2/39 13/99.9 15/99.9 15.1/1 20.1/1
CONDITIONS: stereoisomer not certain
Field format: number, assumed min, no unit text.

Worked set:
CCCOc1nn(C(=O)NS(=O)(=O)c2ccccc2C(=O)OC)c(=O)n1C [Propoxycarbazone]    5.73
O=C1Cc2cc(CCN3CCN(c4nsc5ccccc45)CC3)c(Cl)cc2N1 [Ziprasidone]    8.03

Prompt line: May I ask what LC retention time has been recorded for COc1ccc(CC(C)N)cc1OC (stereo not given) [DMA (3-4-)] ?
Response line: 3.94

Prompt line: May I ask what LC retention time has been recorded for CC(C)C(NC(=O)c1nn(Cc2ccc(F)cc2)c2ccccc12)C(N)=O (stereo not given) [AB-FUBINACA] ?
Response line: 9.59

Prompt line: May I ask what LC retention time has been recorded for CN(C)CCCN1c2ccccc2Sc2ccccc21 [Promazine] ?
Response line: 7.69

Prompt line: May I ask what LC retention time has been recorded for CNC(=O)N(C)c1nc2ccccc2s1 [Methabenzthiazuron] ?
Response line: 8.26

Prompt line: May I ask what LC retention time has been recorded for COc1cc(CCN)c(OC)cc1C [2 C-D] ?
Response line: 5.34

Prompt line: May I ask what LC retention time has been recorded for CCC(C)CC(C)N (stereo not given) [DMAA (Methylhexanamine)] ?
Response line: 4.68

Prompt line: May I ask what LC retention time has been recorded for NNCCc1ccccc1 [Phenelzine] ?
Response line: 3.71

Prompt line: May I ask what LC retention time has been recorded for Fc1ccc(C2CCNCC2COc2ccc3c(c2)OCO3)cc1 (stereo not given) [Paroxetine] ?
Response line: 7.87

// data source = the RepoRT retention time repository (doi:10.1021/acs.analchem.2c02893)
